Consider the following compounds; for each one, report its GI50.
Test system: A498
experimentNotes: NCI tumour cell line growth inhibition, 48 h
Activity calls are given as the source filed them. Cut-off read from the data, not from the text of the source: active = GI50 up to about 1.1 µM and inactive = higher.

>>> print(df.to_string())
                                smilesinput  readoutname        measuredvalue
0  O=C(Nc1ccc(Cl)cc1C(=O)O)c1ccc([N+](=O)[O-])cc1         GI50   9.77 µM (inactive)
1                     COc1ccc(NC(=S)C#N)cc1         GI50   51.9 µM (inactive)
2                Oc1c(CN2CCOCC2)ccc2cccnc12         GI50   > 10 µM (inactive)
3  CCCCCCCCCCCC(=O)OCCOCCOCCOCCOCCOC(=O)CCCCCCCCCCC         GI50  > 100 µM (inactive)
4  Nc1c(-c2nc3ccccc3s2)[n+]([O-])c2ccccc2[n+]1[O-]         GI50   33.2 µM (inactive)

Turning to the following compound.
Q: So what's the measured GI50 for this one? "O=Cc1cccc2ccc3ccccc3c12"
Ans: 22.4 µM (inactive)

---

Test system: SN12C
experimentNotes: NCI tumour cell line growth inhibition, 48 h
Activity calls are given as the source filed them. Cut-off read from the data, not from the text of the source: active = GI50 up to about 1.1 µM and inactive = higher. Where a SMILES comes first, the peptide text is derived from it. The star is where a group is joined. Cbz = O=C(OCc1ccccc1)*; Bn = c1ccc(C*)cc1
Pick one and only one: 1 (active), 0 (inactive)

molecule	discreteLabel
C(/C=C/N1CCCC1)=C\c1nc(N2CCCC2)c2ccccc2n1	0
COc1ccc(-c2nnc(-c3c(C)n(C)n(-c4ccccc4)c3=O)o2)cc1	0
NNC(=O)c1ccccc1Nc1ccccc1C(=O)NN	0
NCC(=O)NC(CO)C(=O)O (stereo not drawn)	0
CCOC(=O)/C(=N/Nc1ccccc1)N1C(=S)N(C)N=C(C)C=C1S	0
Ic1cccc(/C=C/CN2CCN(CCOC(c3ccccc3)c3ccccc3)CC2)c1	0
CN(C(=O)C1CC1)C1C2CN3CCC(O2)C13 (stereo not drawn)	0
COc1ccc(NC(=S)C#N)cc1	0
Cc1cc2c(Br)cc(Br)c(O)c2nc1C(=O)c1ccccc1	0
COc1ccc(C2=C3c4cc(OC)c(OC)cc4CCN3C(=S)SS2)cc1OC	0

Q: Query: recorded result category for "CN1CCc2c(sc3ncn(N)c(=N)c23)C1" in this test
Ans: 0

Q: Query: recorded result category for C[C@H]1CCC2C(CN3CCCCC3)C(=O)OC2[C@]2(C)C(=O)CC(N3CCCCC3)C12O (stereo partly drawn) in this test
Ans: 0

Q: Query: recorded result category for "Cc1cc2c(cc1-c1cc3c(cc1C)C(C(C)C)=C(O)C(=O)/C3=C\Nc1c3ccccc3nc3ccccc13)/C(=C/Nc1c3ccccc3nc3ccccc13)C(=O)C(O)=C2C(C)C" in this test
Ans: 0

Q: Query: recorded result category for CC(=O)Nc1ccc(C(O)/C(=N/N)c2nc3ccc(Cl)cc3nc2O)cc1 (stereo not drawn) in this test
Ans: 0

Q: Query: recorded result category for Oc1cc(O)c2c(c1)OC(c1ccc(O)c(O)c1)C(O)C2c1c(O)cc(O)c2c1OC(c1ccc(O)c(O)c1)C(O)C2 (stereo not drawn) in this test
Ans: 0

Q: Query: recorded result category for O=C(Nc1cc(C(F)(F)F)ccc1Cl)C(=O)C(C(=O)c1ccc2ccccc2c1)C1OC(=O)c2ccccc21 (stereo not drawn) in this test
Ans: 0

Q: Query: recorded result category for "Nc1c2c(=O)[nH]c(=O)c2c(N)c2c(=O)c3ccccc3c(=O)c12" in this test
Ans: 0

Q: Query: recorded result category for COC(=O)NC1C(C)OC(OC2C/C=C(/C)C3C=CC4C(OC5CC(OC6CCC(OC7CC(O)C(OC8CCC(O)C(C)O8)C(C)O7)C(C)O6)C(OC(C)=O)C(C)O5)C(C)CC(C)C4C3(C)/C(O)=C3/C(=O)OC4(CC(C=O)=CC(O)C4/C=C\2C)C3=O)CC1(C)[N+](=O)[O-] (stereo not drawn) in this test
Ans: 1

Q: Query: recorded result category for O=C1C2c3[nH]c4ccccc4c3[C@@H]3CCCCCCCCCCC3C2C(=O)N1c1ccccc1 (stereo partly drawn) in this test
Ans: 0

Q: Query: recorded result category for "NC(=O)c1ccc(S(=O)(=NS(=O)(=O)c2ccccc2)c2ccc(C(N)=O)cc2)cc1" in this test
Ans: 0

Q: Query: recorded result category for "COc1ccc(C=O)cc1O[Si](C)(C)C(C)(C)C" in this test
Ans: 0

Q: Query: recorded result category for COC(=O)C(Cc1ccc(O)cc1)NC(=O)C(COCc1ccccc1)NC(=O)OCc1ccccc1 (stereo not drawn) (Cbz-Ser(Bn)-Tyr-OMe; configuration not given here) in this test
Ans: 0
